Attribution: ChEMBL document CHEMBL1201862

System: MDA-MB-231
Assay: NCI tumour cell line growth inhibition, 48 h
Calls of active or inactive are those of the source. Rule as the data show it: active = GI50 up to about 1.1 µM and inactive = higher.
Exercise: state measured GI50 for each of the compounds provided.

input: Query GI50 for COc1ccc(C(=O)/C=C/c2ccc(OCCSCCCCCCCCCCSCCOc3ccc(/C=C/C(=O)c4ccc(OC)c(OC)c4)cc3)cc2)cc1OC
output: > 100 µM (inactive)

input: Query GI50 for O=[N+]([O-])c1cnc(N(CCO)CCO)s1
output: > 100 µM (inactive)

input: Query GI50 for COc1ccc(/C=C2\N/C(=N/N)N=C2Cl)cc1
output: > 100 µM (inactive)

input: Query GI50 for CCOC(=O)C1=NNC(C(=O)c2ccccc2)C1c1ccccc1 (stereo unspecified)
output: 3.94 µM (inactive)

input: Query GI50 for COC(=O)C(Cc1c[nH]c2ccccc12)NP(=O)(O)OCC1OC(n2cc(F)c(=O)[nH]c2=O)CC1O (stereo unspecified)
output: > 100 µM (inactive)

input: Query GI50 for Cc1nc2ccccc2c(=O)n1/N=C/c1ccc(N(C)C)cc1
output: 32.9 µM (inactive)

====

System: CAKI-1
Assay: NCI tumour cell line growth inhibition, 48 h
The source made the active and inactive calls. Rule as the data show it: active = GI50 up to about 1.1 µM and inactive = higher.
Result category, one only: true (1) = active, false (0) = inactive

input: Assay result, entry COc1ccc(CC(C#N)c2cc(OC)c(OC)c(OC)c2)cc1 (stereo not given) — outcome?
output: true (1)

input: Assay result, entry CN1/C(=C\N=O)C(C)(C)N(O)C1(C)C — outcome?
output: false (0)

input: Assay result, entry Cc1cc(C)c(O)c(Cc2cccc(Cc3cc(C)cc(C)c3O)c2O)c1 — outcome?
output: false (0)

input: Assay result, entry CCCCCCCCCCCCCCCCOCC(Cl)CP(=O)(O)OP(=O)(O)OCC1OC(n2cnc3c(N)ncnc32)C(O)C1O (stereo not given) — outcome?
output: false (0)

input: Assay result, entry CCOc1ccc(NC(=O)C(=O)CC(=O)c2c[n+]([O-])c3cc(C)c(C)cc3[n+]2[O-])cc1 — outcome?
output: false (0)

input: Assay result, entry N#CC(C(=O)CCC(=O)Nc1cccc(C(F)(F)F)c1)c1ccc(Cl)cc1 (stereo not given) — outcome?
output: false (0)

input: Assay result, entry Cc1cccc2nc3n(c12)C(=O)c1ccccc1-3 — outcome?
output: false (0)

input: Assay result, entry Nc1ccc(Nc2nc(F)nc(-c3c4ccccc4c4n3CCS4)n2)cc1 — outcome?
output: false (0)

input: Assay result, entry OC(c1ccccc1Br)(c1ccccc1Br)C(F)(F)F — outcome?
output: false (0)

input: Assay result, entry Cn1c2ccc(C3=NCCN3)cc2c2cc(C3=NCCN3)ccc21 — outcome?
output: false (0)

input: Assay result, entry CC(=O)C1C(=O)C(=O)N(c2ccc([N+](=O)[O-])cc2)C1=O (stereo not given) — outcome?
output: false (0)

input: Assay result, entry O=c1ccn(C2OC(CO)C(O)C2O)c(=O)[nH]1 (stereo not given) — outcome?
output: false (0)

input: Assay result, entry O=C1CC(Sc2nc3ccc(I)cc3c(=O)n2Cc2ccccc2)C(=O)NN1 (stereo not given) — outcome?
output: false (0)

input: Assay result, entry Cc1ccccc1C(=O)N/N=C/c1ccc(Sc2nccn2C)c([N+](=O)[O-])c1 — outcome?
output: false (0)

input: Assay result, entry CCOC(=O)C1C(=O)CC(O)(c2ccccc2)C(C(=O)OCC)C1c1ccc(N(C)C)cc1 (stereo not given) — outcome?
output: false (0)

input: Assay result, entry CCOC(=O)c1nc2cc(C(F)(F)F)ccc2nc1Nc1ccc(F)cc1 — outcome?
output: false (0)

input: Assay result, entry CC(C)(C)c1ccc(O)c(C(O)c2ccncc2)c1 (stereo not given) — outcome?
output: false (0)

input: Assay result, entry COc1cc2c(cc1OC)C1C(O)C(OC)C(Br)C3(Br)CCN(C2)C13 (stereo not given) — outcome?
output: false (0)

input: Assay result, entry CC1CC(C)(O)CC(C(O)CC2CC(=O)NC(=O)C2)C1=O (stereo not given) — outcome?
output: true (1)

input: Assay result, entry OC1CCC[C@@H]1Sc1ccccc1 (stereo not given in full) — outcome?
output: false (0)

input: Assay result, entry O=C(O)CSc1nnc(CCCCCCCCc2nnc(SCC(=O)O)o2)o1 — outcome?
output: false (0)

input: Assay result, entry CC(C)c1ccc2nc3ccc(C(=O)NCCN4CCN(c5ccccc5)CC4)cn3c(=O)c2c1 — outcome?
output: false (0)

input: Assay result, entry COc1ccc(/C=C2\N/C(=N/N)N=C2Cl)cc1 — outcome?
output: false (0)

input: Assay result, entry NC(=O)c1cn(Cc2ccccc2)c(=O)n1Cc1ccccc1 — outcome?
output: false (0)

input: Assay result, entry NS(=O)(=O)c1ccc(-n2c(-c3cccs3)nc3ccc(I)cc3c2=O)cc1 — outcome?
output: false (0)

input: Assay result, entry COc1cc([N+](=O)[O-])ccc1NC1=CC(=O)CCC1 — outcome?
output: false (0)

input: Assay result, entry CCOP(=O)(OCC)OC1c2[nH]ccc2-c2cc(C(=O)OC)[nH]c2C1OC (stereo not given) — outcome?
output: false (0)

input: Assay result, entry Cc1nc2ccccc2n1Cc1nnc2n1N=C(c1ccccc1)CS2 — outcome?
output: false (0)

input: Assay result, entry O=C(NCCCCCCCCNC(=O)c1cccc2ccccc12)c1cccc2ccccc12 — outcome?
output: false (0)

input: Assay result, entry CC(=O)N(C(C)=O)c1c(N)n(C)c(=O)[nH]c1=O — outcome?
output: false (0)

input: Assay result, entry Cc1ccc(-c2cs/c(=N\c3ccccc3)n2NC(=O)c2ccncc2)cc1 — outcome?
output: false (0)

input: Assay result, entry N#C/C(=C/c1ccc[nH]1)P(=O)(O)O — outcome?
output: false (0)

input: Assay result, entry Cc1nc2cc(/N=N/c3c(O)ccc4ccccc34)ccc2[nH]1 — outcome?
output: false (0)

input: Assay result, entry Cc1c(C(=O)/C=C/c2ccc3c(c2)OCO3)[n+]([O-])c2ccccc2[n+]1[O-] — outcome?
output: false (0)

input: Assay result, entry CCc1cccc(C)c1NC(=O)CC1C(=O)Nc2ccccc2S1(=O)=O (stereo not given) — outcome?
output: false (0)

input: Assay result, entry Cc1cc(C)c2c(c1)CC1(Cc3ccc(C)c(C)c3C1=O)C2=O (stereo not given) — outcome?
output: false (0)

input: Assay result, entry COc1cc2c(NCCCCCCO[N+](=O)[O-])ncnc2c(OC)c1OC — outcome?
output: false (0)

input: Assay result, entry O=c1[nH]nc(Cc2ccccc2)n1O — outcome?
output: false (0)

input: Assay result, entry CC1=C2C(=CC(C)(CO)C2O)C(=O)C(C)(O)C12CC2 (stereo not given) — outcome?
output: true (1)

input: Assay result, entry COc1ccc2[nH]c3c(C)c4cc[n+](COC(=O)c5ccccc5)cc4c(C)c3c2c1 — outcome?
output: true (1)

input: Assay result, entry CCOC(=O)C1=C(C)N(Cc2ccccc2)C(=O)C1CC#N (stereo not given) — outcome?
output: false (0)

input: Assay result, entry CC(C)/C(Cl)=N\OC(=O)Nc1cccc(Cl)c1 — outcome?
output: false (0)

input: Assay result, entry Cn1c2ccccc2n2c(=O)c3c(c(C#N)c12)CCCC3 — outcome?
output: false (0)

input: Assay result, entry COc1ccc(C2COc3c(ccc(O)c3C)C2)cc1OC (stereo not given) — outcome?
output: false (0)

input: Assay result, entry CC(=O)/C=C/C1=C(C)CCCC1(C)CC(C)C (stereo not given) — outcome?
output: false (0)
